Observed MIC, system E. coli 26.

See these solved cases before continuing.
| Molecule | Recorded endpoint | Reported result |
| --- | --- | --- |
| Cl.Nc1c(F)c(N2C[C@H]3CCCN[C@H]3C2)c(OC(F)F)c2c1c(=O)c(C(=O)O)cn2C1CC1 | MIC | 0.015 µg/mL |
| Cl.O=C(O)c1cn(C2CC2)c2c(OC(F)F)c(N3C[C@@H]4CCCN[C@@H]4C3)c(F)cc2c1=O (relative stereo) [Embodiment 15] | MIC | 0.03 µg/mL |
| Cl.O=C(O)c1cn(C2CC2)c2c(OC(F)F)c(N3C[C@@H]4CCCN[C@@H]4C3)c(F)cc2c1=O [Embodiment 13] | MIC | 0.015 µg/mL |
| Cl.O=C(O)c1cn(C2CC2)c2c(OC(F)F)c(N3C[C@H]4CCCN[C@H]4C3)c(F)cc2c1=O | MIC | 0.03 µg/mL |
| Nc1c(F)c(N2C[C@@H]3CCCN[C@@H]3C2)c(OC(F)F)c2c1c(=O)c(C(=O)O)cn2C1CC1 (relative stereo) | MIC | < 0.007 µg/mL |
| COc1c(N2C[C@@H]3CCCN[C@@H]3C2)c(F)cc2c(=O)c(C(=O)O)cn(C3CC3)c12 [Moxifloxacin, moxifloxacin, reference compound] | MIC | 0.03 µg/mL |

Below: the item to evaluate.
Enquiry: Given the molecule Cl.Nc1c(F)c(N2C[C@@H]3CCCN[C@@H]3C2)c(OC(F)F)c2c1c(=O)c(C(=O)O)cn2C1CC1 , what is its reported MIC?
Return: 0.015 µg/mL
